- testTarget: Ataxin-2 (Homo sapiens) (UniProt Q99700)
- Sequence (Q99700 whole entry): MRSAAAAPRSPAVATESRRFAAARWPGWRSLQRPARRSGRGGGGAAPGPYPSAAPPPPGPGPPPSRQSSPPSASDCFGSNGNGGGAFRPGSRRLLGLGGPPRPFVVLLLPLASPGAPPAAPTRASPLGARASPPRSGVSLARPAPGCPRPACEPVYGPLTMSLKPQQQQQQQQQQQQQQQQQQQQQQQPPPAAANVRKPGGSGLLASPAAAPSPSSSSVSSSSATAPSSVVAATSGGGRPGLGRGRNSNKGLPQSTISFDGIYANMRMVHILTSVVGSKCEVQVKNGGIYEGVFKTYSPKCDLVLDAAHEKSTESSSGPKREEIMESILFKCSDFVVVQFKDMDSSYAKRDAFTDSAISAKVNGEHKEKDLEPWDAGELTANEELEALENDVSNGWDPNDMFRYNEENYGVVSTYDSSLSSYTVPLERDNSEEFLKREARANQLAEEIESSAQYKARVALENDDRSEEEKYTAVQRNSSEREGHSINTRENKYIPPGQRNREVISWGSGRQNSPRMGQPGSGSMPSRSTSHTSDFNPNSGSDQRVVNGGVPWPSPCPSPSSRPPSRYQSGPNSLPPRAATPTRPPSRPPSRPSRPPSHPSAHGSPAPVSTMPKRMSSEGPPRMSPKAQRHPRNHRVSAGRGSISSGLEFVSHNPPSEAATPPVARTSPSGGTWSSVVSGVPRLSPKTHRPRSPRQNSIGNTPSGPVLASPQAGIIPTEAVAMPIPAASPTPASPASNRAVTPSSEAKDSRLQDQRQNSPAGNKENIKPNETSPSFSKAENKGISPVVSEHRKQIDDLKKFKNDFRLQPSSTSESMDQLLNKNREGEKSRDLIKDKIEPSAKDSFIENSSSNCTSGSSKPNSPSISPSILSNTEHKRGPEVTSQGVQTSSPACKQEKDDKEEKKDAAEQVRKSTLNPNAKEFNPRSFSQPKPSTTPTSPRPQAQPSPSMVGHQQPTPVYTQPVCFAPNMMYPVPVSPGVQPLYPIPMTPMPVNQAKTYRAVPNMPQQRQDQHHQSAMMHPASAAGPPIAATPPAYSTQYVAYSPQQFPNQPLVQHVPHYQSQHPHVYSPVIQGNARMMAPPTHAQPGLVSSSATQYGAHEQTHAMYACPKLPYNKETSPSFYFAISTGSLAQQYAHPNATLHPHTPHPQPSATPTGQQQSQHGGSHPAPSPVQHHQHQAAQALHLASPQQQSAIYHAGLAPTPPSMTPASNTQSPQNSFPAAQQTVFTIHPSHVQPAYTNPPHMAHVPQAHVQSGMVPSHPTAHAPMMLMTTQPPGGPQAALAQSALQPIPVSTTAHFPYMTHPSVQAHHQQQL
- measurementNotes: qHTS for Inhibitors of ATXN expression.
- Format: functional
The campaign covered roughly 400,000 compounds. About 2,100 (0.53%) were called active. Another 14% or so got no clear call; they are omitted. For the sample, actives were picked, then their nearest neighbours and some compounds at random.
outcomeMeasure: Potency

> print(dat)
                                    molecule                                testtarget  outcomemeasure       measurement
 1    COc1ccccc1NC(=O)Nc1nnc(Cc2ccc(F)cc2)s1  Ataxin-2 (Homo sapiens) (UniProt Q99700)         Potency          inactive
 2  COc1ccc2nc(NCCCNC(=O)c3cc(OC)c(OC)c(OC)c3)c(C#N)cc2c1  Ataxin-2 (Homo sapiens) (UniProt Q99700)         Potency          inactive
 3  COc1ccc(Nc2cc(C(=O)NCCCN(C)Cc3ccccc3)c3ccccc3n2)c(OC)c1  Ataxin-2 (Homo sapiens) (UniProt Q99700)         Potency  14.1 µM (active)
 4  CCCCNC(=O)c1cc2c(=O)n3cccc(C)c3nc2n(Cc2ccccc2)c1=N  Ataxin-2 (Homo sapiens) (UniProt Q99700)         Potency          inactive
 5  Cc1cccc(N2C(=O)/C(=C\Nc3ccccc3)c3ccccc3C2=O)n1  Ataxin-2 (Homo sapiens) (UniProt Q99700)         Potency          inactive
 6  CCCCN(CCCNC(=O)c1cc(Nc2ccc(OC)c(OC)c2)nc2ccccc12)Cc1ccccc1  Ataxin-2 (Homo sapiens) (UniProt Q99700)         Potency  22.4 µM (active)
 7  Cc1ccccc1NC(=O)c1nn(C)c(C(=O)Nc2ccccc2C)c1[N+](=O)[O-]  Ataxin-2 (Homo sapiens) (UniProt Q99700)         Potency          inactive
 8  COc1ccc(OC)c(Nc2cc(C(=O)NCc3ccccc3)c3ccccc3n2)c1  Ataxin-2 (Homo sapiens) (UniProt Q99700)         Potency          inactive
 9         Cc1cc(C)nc(N(C#N)Cc2ccc(Cl)cc2)n1  Ataxin-2 (Homo sapiens) (UniProt Q99700)         Potency          inactive
10  Cc1ccccc1NC(=O)Nc1nnc(Cc2ccc([N+](=O)[O-])cc2)s1  Ataxin-2 (Homo sapiens) (UniProt Q99700)         Potency  11.2 µM (active)
